assay-target: NFE2L1 (Homo sapiens, UniProt Q14494)
Sequence (Q14494 654-717 limits assumed): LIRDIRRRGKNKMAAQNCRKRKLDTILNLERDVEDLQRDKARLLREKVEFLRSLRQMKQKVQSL
assay-remarks: Direct-binding FRET assay
Set-up: made in house
settings: 23°C; N-terminal rhodamine design; repeat 1; read-out: Kd
Where no end group is shown, it is not given here.
property-measured: Kd

Requested read-out: Kd. Entry: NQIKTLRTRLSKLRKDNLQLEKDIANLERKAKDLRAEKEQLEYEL [ATF4-d1]
> 1000 nM

---

assay-target: DBP (Homo sapiens, UniProt Q10586)
Construct: made in house
Sequence (Q10586 255-318 limits assumed): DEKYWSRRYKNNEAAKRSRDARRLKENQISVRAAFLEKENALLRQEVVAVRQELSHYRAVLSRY
assay-remarks: Direct-binding FRET assay
settings: Kd, 23°C; C-terminal rhodamine design; mean or single
Where no end group is shown, it is not given here.
property-measured: Kd

Requested read-out: Kd. Entry: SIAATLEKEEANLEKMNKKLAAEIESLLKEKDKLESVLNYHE [JUN-d1]
> 5 µM

---

assay-target: NFE2 (Homo sapiens, UniProt Q16621)
Construct: made in house
Sequence (Q16621 266-329 limits assumed): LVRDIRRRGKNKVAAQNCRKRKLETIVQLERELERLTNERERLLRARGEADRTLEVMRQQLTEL
assay-remarks: Direct-binding FRET assay
settings: 23°C; C-terminal fluorescein design as donor, TAMRA target titrated; read-out: Kd
pKd: −log10 of the molar value. Where no end group is shown, it is not given here.
property-measured: pKd

Missing value: pKd, NFE2 (Homo sapiens, UniProt Q16621), entry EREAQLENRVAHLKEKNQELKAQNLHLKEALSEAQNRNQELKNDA [XBP1-d1] . Fill in?
< 6.00

---

assay-target: DBP (Homo sapiens, UniProt Q10586)
Construct: made in house
Sequence (Q10586 255-318 limits assumed): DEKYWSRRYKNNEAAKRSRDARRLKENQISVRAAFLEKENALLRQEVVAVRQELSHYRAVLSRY
assay-remarks: Direct-binding FRET assay
settings: 4°C; C-terminal fluorescein design as donor, TAMRA target titrated; read-out: Kd
Where no end group is shown, it is not given here.
property-measured: Kd

Requested read-out: Kd. Entry: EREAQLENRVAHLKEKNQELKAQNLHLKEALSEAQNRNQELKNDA [XBP1-d1]
> 1000 nM

---

assay-target: XBP1 (Homo sapiens)
Construct: made in house
Sequence (P17861 70-133 limits assumed): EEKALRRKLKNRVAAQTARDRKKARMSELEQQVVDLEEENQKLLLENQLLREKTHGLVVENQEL
assay-remarks: Direct-binding FRET assay
settings: 23°C; C-terminal rhodamine design; repeat 1; read-out: Kd
Where no end group is shown, it is not given here.
property-measured: Kd

Requested read-out: Kd. Entry: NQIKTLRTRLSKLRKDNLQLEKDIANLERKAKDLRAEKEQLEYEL [ATF4-d1]
> 1000 nM

---

assay-target: NFIL3 (Homo sapiens, UniProt Q16649)
Construct: made in house
Sequence (Q16649 73-136 limits assumed): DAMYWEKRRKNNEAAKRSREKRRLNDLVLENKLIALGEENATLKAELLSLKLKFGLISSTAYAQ
assay-remarks: Direct-binding FRET assay
settings: 37°C; C-terminal rhodamine design; repeat 3; read-out: Kd
Where no end group is shown, it is not given here.
property-measured: Kd

Missing value: Kd, NFIL3 (Homo sapiens, UniProt Q16649), entry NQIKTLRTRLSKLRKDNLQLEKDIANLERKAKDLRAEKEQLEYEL [ATF4-d1] . Fill in?
> 5 µM

---

assay-target: HLF (Homo sapiens)
Construct: made in house
Sequence (Q16534 225-288 limits assumed): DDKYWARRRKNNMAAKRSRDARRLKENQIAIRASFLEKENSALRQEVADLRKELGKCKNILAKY
assay-remarks: Direct-binding FRET assay
settings: 23°C; N-terminal rhodamine design; mean or single; read-out: Kd
Where no end group is shown, it is not given here.
property-measured: Kd

Some solved entries appear below for comparison.
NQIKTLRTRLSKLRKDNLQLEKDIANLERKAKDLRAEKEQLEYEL [ATF4-d1]	> 1 µM
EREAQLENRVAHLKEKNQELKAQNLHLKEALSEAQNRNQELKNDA [XBP1-d1]	> 1 µM

# context switch: different sequence, same Kd
Requested read-out: Kd. Entry: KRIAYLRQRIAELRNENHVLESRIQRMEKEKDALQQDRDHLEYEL [ATF5-d1]
> 1 µM
